system: M1 cells (MLL-ENL alone); assay: cells; settings: Mus musculus, read-out: IC50 M1
metric: pIC50
In simple prose, pIC50 is minus the logarithm base ten of a concentration in moles per litre.

Query: # get_value(readout='pIC50', item= Nc1ccn([C@@H]2O[C@H](CO)[C@@H](O)[C@@H]2O)c(=O)n1 )
Result: 7.33

Query: # get_value(readout='pIC50', item= COc1cccc2c1C(=O)c1c(O)c3c(c(O)c1C2=O)C[C@@](O)(C(=O)CO)C[C@@H]3O[C@H]1C[C@H](N)[C@H](O)[C@H](C)O1 )
Result: 8.43

* * *

Please go through the items and note down their IC50.
test system: MFL2 cells (MLL-ENL + Flt3 ITD); experiment: cells; conditions: Mus musculus, read-out: IC50 MFL2
# output: bare number, implied unit nM

Query: # get_value(readout='IC50', item= COc1cccc2c1C(=O)c1c(O)c3c(c(O)c1C2=O)C[C@@](O)(C(=O)CO)C[C@@H]3O[C@H]1C[C@H](N)[C@H](O)[C@H](C)O1 [Doxorubicin, doxorubicin] )
Result: 24.6

Query: # get_value(readout='IC50', item= Nc1ccn([C@@H]2O[C@H](CO)[C@@H](O)[C@@H]2O)c(=O)n1 [Cytarabine, cytarabine] )
Result: 54.4

Query: # get_value(readout='IC50', item= O=c1[nH]cc(F)c(=O)[nH]1 [5-FU, 5-fluorouracil] )
Result: 292
